For each record, write down the corresponding % AUC to COM701-hIgG1.
Target: T1, cynomolgus monkey PVRIG on FlpinCHO-cyno PVRIG cells (cynomolgus monkey, UniProt A0A2K5WVV8 41-322)
T1 construct: whole, on cells
T1 sequence: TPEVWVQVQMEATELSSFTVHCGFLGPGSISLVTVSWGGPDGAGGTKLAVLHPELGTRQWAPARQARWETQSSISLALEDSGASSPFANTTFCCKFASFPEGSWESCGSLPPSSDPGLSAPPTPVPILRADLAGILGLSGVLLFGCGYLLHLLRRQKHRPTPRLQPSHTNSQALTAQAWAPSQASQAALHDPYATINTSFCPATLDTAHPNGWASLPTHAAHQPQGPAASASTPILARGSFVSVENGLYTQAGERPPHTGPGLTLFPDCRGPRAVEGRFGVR
Assay: FACS, FlpinCHO-cyno PVRIG cells; AUC of MFI curve relative to COM701-hIgG1
Answers are plain numbers, in %.

# binder, % AUC to COM701-hIgG1 (%)
data = [
    ("PVRIG-A105 (Fc fusion, Alpaca VHH joined to human IgG1 Fc (VHH-hinge-CH2-CH3); not shown: human IgG1 hinge-CH2-CH3) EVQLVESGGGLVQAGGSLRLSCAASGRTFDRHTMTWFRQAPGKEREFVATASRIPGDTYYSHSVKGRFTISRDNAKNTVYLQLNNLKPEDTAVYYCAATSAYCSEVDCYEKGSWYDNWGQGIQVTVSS", 122),
]

Shifting focus to the binder that follows.
Q: Quick one: % AUC to COM701-hIgG1 of PVRIG-A35 (Fc fusion, Alpaca VHH joined to human IgG1 Fc (VHH-hinge-CH2-CH3); not shown: human IgG1 hinge-CH2-CH3) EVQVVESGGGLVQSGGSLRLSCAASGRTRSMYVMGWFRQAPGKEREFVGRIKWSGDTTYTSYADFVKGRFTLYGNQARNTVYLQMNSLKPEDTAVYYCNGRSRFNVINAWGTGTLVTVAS ?
Result: 19.3
